Please provide measured IC50 for the entries that follow.
Tested on: P. berghei
assay-details: Liver stage parasite load, luciferase-expressing P. berghei in HepG2 cells
Type: cell-based, Plasmodium berghei ANKA
assay-setup: parasite load, HepG2 host cells
Give bare numbers, in µM.

INSERT INTO measurements (molecule, unit_abbreviation, assay_result) VALUES
  ('Cc1nc(-c2cccs2)c(CCC(=O)Nc2cccc3cccnc23)s1 [compound 5]', 'µM', 9.7),
  ('CCCn1c(NC(=O)c2cccc(C(N)=O)c2)nc2ccccc21 [HS-206 (1)]', 'µM', 6.6);

Let us move to another entry and its IC50.
Entry O=C(Nc1cccc2cnccc12)C1CCCN(c2cnccn2)C1 (stereo not drawn) [compound 4] : IC50 on P. berghei = 54.5
